# System: T-47D breast
# test-summary: NCI tumour cell line growth inhibition, 48 h
observation-type: TGI (µM)

molecule: COC(=O)[C@H]1ON2O[C@H](OC3CCCC[C@@H]3c3ccccc3)C[C@@H]3CC[C@H]1[C@@]32C (stereo not given in full)
comparison-operator: >
experimental-result: 100
--
molecule: Cc1cccc(NC(=O)c2sc3nc4c(cc3c2N)CCC4)c1C
comparison-operator: =
experimental-result: 34.7
--
molecule: C[C@H]1C(=O)C2=C[C@H]1CCC(=O)[C@]1(C)CCCC(C)(C)[C@H]1C[C@H]2O
comparison-operator: =
experimental-result: 32.9
--
molecule: COc1cc2c(cc1C)NC(=O)/C2=C/c1c(Cl)n(C)c2ccccc12
comparison-operator: =
experimental-result: 19.3
--
molecule: CN(C)/C=C/c1ccnc2c1C(=O)c1ccccc1C2=O
comparison-operator: >
experimental-result: 85
--
molecule: CNCc1ccc(C)c(NC(=O)c2ccc(Nc3nc(-c4ccccc4)c4ccccc4n3)cc2)c1
comparison-operator: =
experimental-result: 5.59
--
molecule: Nc1c2ccccc2nc2ccc(C(=O)Nc3ccc(S(N)(=O)=O)cc3)cc12
comparison-operator: >
experimental-result: 100
--
molecule: Cn1cc(C2=C(c3cn(CCCSC(=N)N)c4ccccc34)C(=O)NC2=O)c2ccccc21
comparison-operator: =
experimental-result: 5.12
--
molecule: COc1ccc(-c2nccn2-c2cc(OC)c(OC)c(OC)c2)cc1
comparison-operator: >
experimental-result: 100
--
molecule: CC1=CC(=O)C[C@]2(C)[C@@H](O)CC(C(C)CO)C[C@@H]12 (stereo not given in full)
comparison-operator: >
experimental-result: 100

----------
# Tested on: SF-268 CNS
# test-summary: NCI tumour cell line growth inhibition, 48 h
Measured TGI, listed per entry for reference.

compound: Cc1ccc(S(=O)(=O)NC2(C=O)CCC(C(C)(C)C)CC2)cc1 (stereo not drawn)
TGI: > 100 µM
--
compound: CCOc1ccccc1Nc1nc(C)c(C(=O)CC(=O)C(=O)Nc2ccccc2)s1
TGI: > 100 µM
--
compound: COc1ccc(/C=C2\CC(C)CC3C2=NN(C(C)=O)C3c2ccc(OC)c(OC)c2)cc1OC (stereo not drawn)
TGI: 31.8 µM

----------
# Test system: SN12C renal
# test-summary: NCI tumour cell line growth inhibition, 48 h; in the data active = GI50 below about 0.43 µM; inactive = the rest
Labels: active, inactive

compound: CCN(CC)CCC(CNc1c2ccc(Cl)cc2nc2ccc(OC)cc12)c1ccccc1 (stereo not drawn)
qualitative-label: inactive
//
compound: COC(=O)[C@@H](C)C[C@H](Cc1ccccc1)NC(=O)c1cccc([C@@H](C[C@H](C(C)C)N(C)C(=O)[C@@H](NC(=O)[C@H]2CCCCN2C)C(C)C)OC(C)=O)n1
qualitative-label: active
//
compound: Oc1ccc(-c2nc(-c3ccc4oc5ccc(-c6[nH]c(-c7ccc(O)cc7)nc6-c6ccccc6)cc5c4c3)c(-c3ccccc3)[nH]2)cc1
qualitative-label: inactive
//
compound: Cc1cccc(NC(=O)c2sc3nc4c(cc3c2N)CCC4)c1C
qualitative-label: inactive
//
compound: CCS(=O)(=O)Nc1ccc(Oc2ccc(F)cc2F)c(-c2cn(C)c(=O)c3[nH]ccc23)c1
qualitative-label: inactive
//
compound: O=C(/C=C\c1ccc(Cl)c(Cl)c1)c1ccccc1
qualitative-label: inactive
//
compound: COC(=O)c1cc2c([nH]c3ccccc32)c(-c2nc3cc(N(S(=O)(=O)c4ccc(C)cc4)S(=O)(=O)c4ccc(C)cc4)c(OC)cc3cc2CO)n1
qualitative-label: inactive
//
compound: C[As](C)SCC(COC(=O)c1ccccc1)OC(=O)c1ccccc1 (stereo not drawn)
qualitative-label: active

----------
# System: UACC-257 melanoma
# test-summary: NCI tumour cell line growth inhibition, 48 h; in the data active = GI50 below about 0.43 µM; inactive = the rest
Labels: active, inactive

molecule: COc1cc2c(cc1Nc1nc(Nc3ccsc3C(N)=O)c3cc[nH]c3n1)N(C(=O)CN(C)C)CCC2
system-tested: UACC-257 melanoma
qualitative-label: active

molecule: O=C(/C=C/CN1CCCCC1)Nc1cc2c(Nc3ccc(F)c(Cl)c3F)ncnc2cc1OCCOC(F)F
system-tested: UACC-257 melanoma
qualitative-label: inactive

molecule: COC(=O)c1cc2c([nH]c3ccccc32)c(-c2nc3cc(N(S(=O)(=O)c4ccc(C)cc4)S(=O)(=O)c4ccc(C)cc4)c(OC)cc3cc2CO)n1
system-tested: UACC-257 melanoma
qualitative-label: inactive

molecule: CN(C)c1ccc(/C=C/C(=O)c2ccc(Nc3nc(Nc4ccc(F)cc4)nc(Nc4ccc(Cl)cc4)n3)cc2)cc1
system-tested: UACC-257 melanoma
qualitative-label: inactive

molecule: COC(=O)[C@@H](C)C[C@H](Cc1ccccc1)NC(=O)c1cccc([C@@H](C[C@H](C(C)C)N(C)C(=O)[C@@H](NC(=O)[C@H]2CCCCN2C)C(C)C)OC(C)=O)n1
system-tested: UACC-257 melanoma
qualitative-label: active

molecule: C=CC(=O)N1CC[C@@H](Oc2nc(Nc3ccc(N4CCC(N5CCN(C)CC5)CC4)cc3)c(C(N)=O)nc2CC)C1
system-tested: UACC-257 melanoma
qualitative-label: inactive

molecule: Oc1ccc(-c2nc(-c3ccc4oc5ccc(-c6[nH]c(-c7ccc(O)cc7)nc6-c6ccccc6)cc5c4c3)c(-c3ccccc3)[nH]2)cc1
system-tested: UACC-257 melanoma
qualitative-label: inactive

molecule: CCOC(=O)C(Cc1ccc(N(CCCl)CCCl)cc1)NC(=O)C(CC(C)C)NC(C)=O (stereo not given)
system-tested: UACC-257 melanoma
qualitative-label: inactive

molecule: C[CH2][Ge]1([CH2]C)[CH2]CC2(CCN(CCCN(C)C)C2)C[CH2]1
system-tested: UACC-257 melanoma
qualitative-label: inactive

molecule: COc1ccc2c(c1)CCC1C2CCC2(C)C1CC[C@@]2(O)CNC(=O)/C=C/c1ccc(O)c(O)c1 (stereo not given in full)
system-tested: UACC-257 melanoma
qualitative-label: inactive

----------
# System: PC-3 prostate
# test-summary: NCI tumour cell line growth inhibition, 48 h

compound: CN(C)CCCNc1ccc2nnn3c4ccc([N+](=O)[O-])cc4c(=O)c1c23
TGI: 11.7 µM
--
compound: CC(C)(Oc1ccc(C2C[C@H]2Cl)cc1)C(=O)O (some centres undefined)
TGI: > 100 µM
--
compound: COC(=O)C1(C(=O)OC)CC2=C(S(=O)(=O)c3ccccc3)C[C@@H](C#N)[C@H]2C1
TGI: > 100 µM
--
compound: CC(C)(O)C1CC(=O)C(C)(C2C(O)CC3(C)C4CC=C5C(CCC(O)C5(C)C)C4(C)C(=O)CC23C)O1 (centres undefined)
TGI: > 100 µM
--
compound: CCOC(=O)c1ccccc1NC(c1ccccc1)c1ccc2cccnc2c1O (centres undefined)
TGI: > 100 µM
--
compound: O=C1C2=C(Nc3cc([N+](=O)[O-])ccc3N2)OC1c1c[nH]c2ccc(COc3ccccc3)cc12 (centres undefined)
TGI: > 100 µM
--
compound: COc1cccc2c1C(=N)c1c(O)c3c(c(O)c1C2=O)C[C@@](O)(C(C)=O)C[C@@H]3OC1CC(N)C(O)C(C)O1 (some centres undefined)
TGI: 2.98 µM
--
compound: Cc1nn(-c2ccccc2)c2ncc3c(c12)C(=O)N(Cc1ccccc1)C3=O
TGI: > 100 µM
--
compound: O=C1c2cccc3cc4ccccc4c(c23)C(=O)N1CCCNCCNCCCN1C(=O)c2cccc3cc4ccccc4c(c23)C1=O
TGI: 1.43 µM

----------
# System: NCI-H23 lung
# test-summary: NCI tumour cell line growth inhibition, 48 h
Measured TGI, listed per entry for reference.

compound: CCCCCCn1c(=N)n(CC(O)COc2cccc(C)c2)c2ccccc21 (centres undefined)
comparison-operator: =
TGI, µM: 11.5
//
compound: O=S(=O)(CC#CCS(=O)(=O)c1ccccc1)c1ccccc1
comparison-operator: =
TGI, µM: 12.2
//
compound: O=C(N/N=C/c1cc(-c2ccccc2Cl)c(-c2ccccc2Cl)o1)c1ccncc1
comparison-operator: >
TGI, µM: 100
//
compound: CCCCCC1C2C(=O)NC(=O)C1C(=O)NC2=O (centres undefined)
comparison-operator: >
TGI, µM: 100
//
compound: COc1nc(NC2OCC(OC(C)=O)C(OC(C)=O)C2OC(C)=O)c(N=C(C)C(C)=O)c(=O)n1C (centres undefined)
comparison-operator: >
TGI, µM: 100
//
compound: CN(C)c1ccc(/C=C/C(=O)c2ccc(Nc3nc(Nc4ccc(F)cc4)nc(Nc4ccc(Cl)cc4)n3)cc2)cc1
comparison-operator: =
TGI, µM: 39.5
//
compound: C=C1C(=O)O[C@H]2[C@H]1CC/C(Cn1cc(CNC(=O)c3cc4ccccc4[nH]3)nn1)=C\CC[C@@]1(C)O[C@@H]21
comparison-operator: =
TGI, µM: 34.5
//
compound: COC[C@@H](N=Cc1ccc(OC)cc1)C(C)C
comparison-operator: >
TGI, µM: 100
//
compound: Cn1cc(C2=C(c3cn(CCCSC(=N)N)c4ccccc34)C(=O)NC2=O)c2ccccc21
comparison-operator: =
TGI, µM: 9.72
